Target: T1, MDMX (In-house, 40 kD) (UniProt O15151 1-134, limits assumed)
T1 construct: Construct used in the FP assays is described only as in-house, 40 kD; also called MDM4
T1 sequence (looked up): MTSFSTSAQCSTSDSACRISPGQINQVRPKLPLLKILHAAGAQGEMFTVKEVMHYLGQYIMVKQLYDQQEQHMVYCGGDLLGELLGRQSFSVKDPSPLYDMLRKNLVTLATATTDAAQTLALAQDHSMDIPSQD
Test: competitive fluorescence polarization vs FAM-labeled linear peptide; grade of Ki (MDMX); scale in paragraph 664: +++ = >10 and <=100 nM
Observable: Ki

I am curious: what Ki value has been reported for LTFCAYWAQLCAAAAAA (N-terminal acetyl (Ac); position 4 = %cs7 (alpha-methyl-D-cysteine) connected by an i to i+7 seven-methylene bis-thioether crosslinker to position 11 = %c7 (alpha-methyl-L-cysteine); position 17 = D-alanine (a); C-terminal amide (NH2), Thioether-crosslinked macrocycle of Formula II; also called Ac-LTF%cs7AYWAQL%c7AAAAAa-NH2) [SP-917] ? 10 to 100 nM
